Tgt: HLA-A3 (HLA-A*0301) (human)
Measurement Notes: assembly assay: HLA stabilisation, TAP-deficient cell lysate, W6/32 IP, IEF gel
Outcome: Fulfilled for C50 of at least 1 µM; Not fulfilled for anything lower.

>  <Binder>
ELTLGEFLK [Sur 95-103]

>  <Label>
Fulfilled

$$$$
>  <Binder>
ILKETNNKKK (Sur113-122 with A at position 2 replaced by L) [Sur113L2]

>  <Label>
Fulfilled

$$$$
>  <Binder>
TIRRKNLRK [SurEx3-A3-1]

>  <Label>
Not fulfilled

$$$$
>  <Binder>
KIAKETNNK [Sur 112-120]

>  <Label>
Fulfilled

$$$$
>  <Binder>
RISTFKNWPK (Sur18-27 with F changed to K at P10) [Sur18K10]

>  <Label>
Not fulfilled

$$$$
>  <Binder>
DLAQCFFCFK (also called Survivin53-62) [Sur 53-62]

>  <Label>
Fulfilled

$$$$

Now consider the entry below.
INPUT: Could you verify whether the entry TLPPAWQPK (Sur5-13 with the C-terminal F replaced by K) [Sur5K9] shows C50 of no less than 1 µM?
OUTPUT: Fulfilled
